system: SK-MEL-2 melanoma; experiment: NCI-60 one-dose screen, 48 h (100 = growth as untreated, 0 = no growth, -100 = all killed); conditions: 10 µM
The panel holds about 83,000 compounds, 20% with a hit somewhere; the sample as a whole holds those more often.
Would you mind telling me the reported growth of each entry?
Quick reminder: number only, in %, skip the unit.

growth for O=C(c1ccc(O)cc1)C1[C@H](c2ccc(Br)cc2)[C@@H](c2ccccc2)NC12C(=O)Nc1ccccc12 (some centres undefined) is 55.7

growth for CN1CCN(Cc2ccc(NC(=O)c3cncc(C#Cc4cnc5ccc(N[C@@H]6CCOC6)nn45)c3)cc2C(F)(F)F)CC1 is -94.3

growth for COc1ccc2[nH]c(O)c(N=NC(=O)c3cc(-c4ccc(C)cc4)nc4ccccc34)c2c1 is 111

growth for COc1ccc(C(C)=C(c2ccc(OCCCN(C)C)cc2)c2ccc(OCCCN(C)C)cc2)cc1 is -92.8

growth for Clc1ccc2c(N/N=C/c3c[nH]c4ccc(Br)cc34)ccnc2c1 is -93

growth for O=c1[nH][nH]c(Nc2ccccc2)c1N=Nc1ccc(F)cc1 is 94.1

growth for Nc1nnc(-c2c[nH]c3ccc(F)cc23)c(-c2c[nH]c3ncccc23)n1 is 93.7

growth for N#Cc1c(-c2ccc(F)cc2)nc(SCc2ccc([N+](=O)[O-])cc2)nc1N1CCOCC1 is 87.4

growth for CCN1CCN(Cc2ccc(C(=O)Nc3cccc(-c4cn(-c5ccc6oc(=O)ccc6c5)nn4)c3)cc2C(F)(F)F)CC1 is 66.1
